- target_system: HIV-1 Env of pseudovirus Du172.17 (HIV-1)
- protocol_notes: cell-based or functional assay
measured_endpoint: neutralization IC50 (µg/mL)
Entry rule: numbers only, all in µg/mL.

Fill blank: measured neutralization IC50 of the binder MS-85 (antibody, V domains shown) VH: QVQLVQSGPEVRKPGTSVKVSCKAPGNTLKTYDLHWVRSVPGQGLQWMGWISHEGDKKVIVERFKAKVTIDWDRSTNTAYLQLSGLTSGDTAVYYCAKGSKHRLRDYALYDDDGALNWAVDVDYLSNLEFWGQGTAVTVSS VL: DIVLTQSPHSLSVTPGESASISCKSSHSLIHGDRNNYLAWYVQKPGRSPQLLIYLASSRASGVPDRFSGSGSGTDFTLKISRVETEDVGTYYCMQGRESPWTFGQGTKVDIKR is ____.
2.23
